Each entry below carries its reported IC50.
target: activated MMP-8 enzyme (Homo sapiens, UniProt P22894); assay: Assay for determining MMP-8 inhibition (fluorescent substrate); conditions: read-out: MMP-8 Activity (IC50 MMP-8), Group
Sequence (P22894 101-467): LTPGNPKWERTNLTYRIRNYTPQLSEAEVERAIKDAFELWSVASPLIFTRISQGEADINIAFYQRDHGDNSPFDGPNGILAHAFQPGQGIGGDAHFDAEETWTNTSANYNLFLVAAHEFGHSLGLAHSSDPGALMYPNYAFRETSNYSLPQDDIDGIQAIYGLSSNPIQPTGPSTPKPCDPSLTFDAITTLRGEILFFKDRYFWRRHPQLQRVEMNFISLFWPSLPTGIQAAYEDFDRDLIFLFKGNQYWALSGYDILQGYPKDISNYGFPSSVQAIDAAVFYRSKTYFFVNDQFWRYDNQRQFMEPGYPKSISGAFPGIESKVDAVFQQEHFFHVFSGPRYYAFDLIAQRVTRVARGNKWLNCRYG

{"COMPOUND": "CN1C(=O)COc2ccc(CNC(=O)c3nc4ccccc4c(=O)[nH]3)cc21 [1/8]", "IC50": "250 to 20000 nM"}
{"COMPOUND": "O=C1COc2ccc(CNC(=O)c3nc4c(c(=O)[nH]3)C3CCC4CC3)cc2N1 [Example 3]", "IC50": "< 250 nM"}
{"COMPOUND": "Cc1sc2nc(C(=O)NCc3cc4c(cc3F)OCC(=O)N4)[nH]c(=O)c2c1C [1/26]", "IC50": "250 to 20000 nM"}
